- target_or_system: T1, BMP-12 (UniProt Q7Z4P5 322-450, limits assumed)
- T1 construct: also called BMP12/GDF7
- T1 sequence (looked up): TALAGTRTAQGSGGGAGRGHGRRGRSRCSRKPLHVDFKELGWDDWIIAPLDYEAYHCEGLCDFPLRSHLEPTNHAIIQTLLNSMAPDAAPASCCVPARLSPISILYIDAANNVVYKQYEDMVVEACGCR
- assay_details: peptide resin, filter plate; load 2: 50 mM Acetic Acid, 0.1 M NaCl, pH 4.0
No end group written: not given here.
assay_metric: 100 mM HAc elution K
Kindly provide the number alone.

These solved cases illustrate the format of a correct answer.
Ac-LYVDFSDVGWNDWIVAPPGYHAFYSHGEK [BMP2 Full peptide 747] : 6
Ac-LYVSDVGWNDWIVK (not fully specified (residue 3); printed as Ac-LYV**SDVGWNDWIVK; also: ** after V3 not explained) [BMP2 C-trunc_2 peptide 746] : 3
Ac-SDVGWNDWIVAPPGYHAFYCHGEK [BMP2 N-trun peptide 750] : 2

The recorded 100 mM HAc elution K for Ac-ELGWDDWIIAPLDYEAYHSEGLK [BMP12 N-trun_1S peptide 749] is 4

The recorded 100 mM HAc elution K for Ac-VAPPGYHAFYSHGEK [BMP2 N-trunc_2 peptide 745] is 1

The recorded 100 mM HAc elution K for Ac-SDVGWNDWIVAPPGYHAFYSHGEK [BMP2 N-trun 1S peptide 751] is 1

The recorded 100 mM HAc elution K for Ac-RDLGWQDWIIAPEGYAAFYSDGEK [BMP5 peptide 748] is 6
